- System: MDA-MB-468
- assay remarks: Antiproliferative activity against human MDA-MB-468 cells in culture medium with 10% lipid-reduced serum after 4 days by ATP-Glo assay
- Assay type: functional, cell-based
- condition parameters: MDA-MB-468, 96 h
measured endpoint: pEC50
Give only the number. pEC50 is defined as minus log10 of concentration in molar units.

Lab book: pEC50 of "Cn1cc(-c2ccc(-c3ccc(C4=NC5(CC5)C(=O)N4C[C@@H]4CCN(C(=O)C5CC5)C4)cc3)cc2)cn1" noted as 7.59

* * *

- system name: Cytochrome P450 2C19 (Homo sapiens, UniProt P33261)
- Sequence (P33261 whole entry): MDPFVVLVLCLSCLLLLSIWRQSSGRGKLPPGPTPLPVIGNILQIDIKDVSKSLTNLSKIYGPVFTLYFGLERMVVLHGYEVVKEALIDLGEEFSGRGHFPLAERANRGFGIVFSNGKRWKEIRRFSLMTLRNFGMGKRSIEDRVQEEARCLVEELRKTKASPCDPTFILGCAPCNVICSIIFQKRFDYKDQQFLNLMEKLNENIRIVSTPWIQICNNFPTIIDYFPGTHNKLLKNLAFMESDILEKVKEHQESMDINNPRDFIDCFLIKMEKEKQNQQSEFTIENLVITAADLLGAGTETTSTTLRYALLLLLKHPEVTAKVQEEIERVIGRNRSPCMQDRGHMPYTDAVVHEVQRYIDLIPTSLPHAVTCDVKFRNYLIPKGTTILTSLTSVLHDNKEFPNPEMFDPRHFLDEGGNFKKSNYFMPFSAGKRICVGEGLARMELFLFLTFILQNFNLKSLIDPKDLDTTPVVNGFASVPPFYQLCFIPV
measured endpoint: IC50

Test item "Cn1cc(-c2ccc(-c3ccc(C4=NC5(CC5)C(=O)N4C[C@@H]4CCN(C(=O)C5CC5)C4)cc3)cc2)cn1" ; Cytochrome P450 2C19 (Homo sapiens, UniProt P33261); reported IC50 was > 10 µM

* * *

pIC50: −log10 of the molar value.
measured endpoint: pIC50

Test item "Cn1cc(-c2ccc(-c3ccc(C4=NC5(CC5)C(=O)N4C[C@@H]4CCN(C(=O)C5CC5)C4)cc3)cc2)cn1" ; Cytochrome P450 2D6 (Homo sapiens, UniProt P10635); reported pIC50 was < 5.00

* * *

- System: LNCaP
- assay remarks: Antiproliferative activity against human LNCAP cells in culture medium with 10% lipid-reduced serum after 4 days by ATP-Glo assay
- Type: functional, cell-based
- condition parameters: 96 h
measured endpoint: EC50
I'd appreciate it if you included the unit after the number.

Lab book: EC50 of "Cn1cc(-c2ccc(-c3ccc(C4=NC5(CC5)C(=O)N4C[C@@H]4CCN(C(=O)C5CC5)C4)cc3)cc2)cn1" noted as 0.066 µM

* * *

- system name: Cytochrome P450 1A2 (Homo sapiens, UniProt P05177)
- Sequence (P05177 whole entry): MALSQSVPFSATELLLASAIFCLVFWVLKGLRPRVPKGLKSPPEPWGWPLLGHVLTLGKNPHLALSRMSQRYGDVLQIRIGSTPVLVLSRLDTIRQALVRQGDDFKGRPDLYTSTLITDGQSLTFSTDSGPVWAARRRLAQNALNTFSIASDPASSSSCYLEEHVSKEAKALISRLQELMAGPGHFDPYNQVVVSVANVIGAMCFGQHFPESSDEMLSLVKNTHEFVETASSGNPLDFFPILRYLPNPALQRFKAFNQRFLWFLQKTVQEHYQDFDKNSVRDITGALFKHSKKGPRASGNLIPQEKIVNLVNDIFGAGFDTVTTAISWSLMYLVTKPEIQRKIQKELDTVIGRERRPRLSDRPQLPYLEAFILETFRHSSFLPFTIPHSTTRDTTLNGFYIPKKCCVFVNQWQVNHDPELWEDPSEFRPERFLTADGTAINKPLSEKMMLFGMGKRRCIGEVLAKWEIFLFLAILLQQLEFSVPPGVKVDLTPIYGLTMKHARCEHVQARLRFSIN
pIC50: −log10 of the molar value.
measured endpoint: pIC50

Lab book: pIC50 of "Cn1cc(-c2ccc(-c3ccc(C4=NC5(CC5)C(=O)N4C[C@@H]4CCN(C(=O)C5CC5)C4)cc3)cc2)cn1" noted as < 5.00

* * *

- System: HL-60
- assay remarks: Antiproliferative activity against human HL60 cells in culture medium with 10% lipid-reduced serum after 4 days in presence of palmitate by ATP-Glo assay
- Type: functional, cell-based
- condition parameters: HL-60, 96 h
measured endpoint: EC50 (µM)
Form entry: value (µM) — number only.

Lab book: EC50 of "Cn1cc(-c2ccc(-c3ccc(C4=NC5(CC5)C(=O)N4C[C@@H]4CCN(C(=O)C5CC5)C4)cc3)cc2)cn1" noted as 6.31

* * *

- System: MV4-11
- assay remarks: Antiproliferative activity against human MV4-11 cells in culture medium with 10% lipid-reduced serum after 4 days by ATP-Glo assay
- Format: functional, cell-based
- condition parameters: MV4-11, 96 h
measured endpoint: EC50 (nM)
Form entry: value (nM) — number only.

Lab book: EC50 of "Cn1cc(-c2ccc(-c3ccc(C4=NC5(CC5)C(=O)N4C[C@@H]4CCN(C(=O)C5CC5)C4)cc3)cc2)cn1" noted as 59

* * *

- Tested on: A2780
- assay remarks: Antiproliferative activity against human A2780 cells in culture medium with 10% lipid-reduced serum after 4 days in presence of palmitate by MTT assay
- Assay type: functional, cell-based
- condition parameters: A2780, 96 h
measured endpoint: EC50

Test item "Cn1cc(-c2ccc(-c3ccc(C4=NC5(CC5)C(=O)N4C[C@@H]4CCN(C(=O)C5CC5)C4)cc3)cc2)cn1" ; A2780; reported EC50 was > 10 µM
